tested on: Staphylococcus aureus; assay: Toxicity in methicillin-resistant Staphylococcus aureus ATCC BAA-44 assessed as inhibition of planktonic cell growth at IC50 after 2 to 24 hrs by spectrophotometry; format: organism-based
property_name: Activity

Worked examples, 4 compounds total:
- compound_structure_string: "CCCCCc1ccc(C(=O)Nc2ccc3c(c2)nc(N)n3CCc2ccc(OC)cc2)cc1.Cl"
  Activity: "Toxic"
- compound_structure_string: "CCCCCc1ccc(C(=O)Nc2ccc3c(c2)nc(N)n3CCc2cccc(OC)c2)cc1.Cl"
  Activity: "Non-toxic"
- compound_structure_string: "CCCCCc1ccc(C(=O)Nc2ccc3c(c2)nc(N)n3Cc2ccccc2)cc1.Cl"
  Activity: "Non-toxic"
- compound_structure_string: "CCCCCc1ccc(C(=O)Nc2ccc3c(c2)nc(N)n3C2CCCC2)cc1.Cl"
  Activity: "Non-toxic"

**Query** Form field: Activity recorded for CCCCCc1ccc(C(=O)Nc2ccc3c(c2)nc(N)n3CCCCc2ccccc2)cc1.Cl with Staphylococcus aureus (enter value)
**Result** Toxic

----------
test system: Staphylococcus aureus; experiment: Antimicrobial activity against methicillin-resistant Staphylococcus aureus ATCC BAA-1685 after 16 hrs by broth microdilution method; type: functional; details: ATCC BAA-1685, 16 h
As shown below, each of these compounds has a reported MIC value.
Quick reminder: number only, in µg/mL, skip the unit.

Use these answered entries as a reference point.
- compound_structure_string: "CCCCCc1ccc(C(=O)Nc2ccc3c(c2)nc(N)n3CCCc2ccccc2)cc1.Cl"
  MIC [µg/mL]: 32
- compound_structure_string: "CCCCCc1ccc(C(=O)Nc2ccc3c(c2)nc(N)n3-c2ccc(CCCCC)cc2)cc1.Cl"
  MIC [µg/mL]: 64
- compound_structure_string: "CCCCCc1ccc(C(=O)Nc2ccc3c(c2)nc(N)n3C)cc1.Cl"
  MIC [µg/mL]: 16
- compound_structure_string: "CCCCCc1ccc(C(=O)Nc2ccc3c(c2)nc(N)n3CCc2ccccc2)cc1.Cl"
  MIC [µg/mL]: 8
- compound_structure_string: "CCCCCc1ccc(C(=O)Nc2ccc3c(c2)nc(N)n3CCCC)cc1.Cl"
  MIC [µg/mL]: 8

**Query** Could you share which MIC value was measured for CCCCCc1ccc(C(=O)Nc2ccc3c(c2)nc(N)n3CCCCc2c[nH]c3ccccc23)cc1.Cl ?
**Result** 32

----------
system: Staphylococcus aureus; assay: Antimicrobial activity against methicillin-resistant Staphylococcus aureus ATCC BAA-1685 after 16 hrs by broth microdilution method; assay type: functional; settings: ATCC BAA-1685, 16 h
Measured MIC by item
Kindly provide the numeric value in µg/mL only, without the unit symbol.

- compound_structure_string: "CCCCCc1ccc(C(=O)Nc2ccc3c(c2)nc(N)n3CCc2cccc(OC)c2)cc1.Cl"
  measured_result: 16
- compound_structure_string: "CCCCCc1ccc(C(=O)Nc2ccc3c(c2)nc(N)n3C2CCCC2)cc1.Cl"
  measured_result: 8

**Query** Fill in the blank: the reported MIC of CCCCCCCCn1c(N)nc2cc(NC(=O)c3ccc(CCCCC)cc3)ccc21.Cl is ____.
**Result** 64

**Query** Next: CCCCCCn1c(N)nc2cc(NC(=O)c3ccc(CCCCC)cc3)ccc21.Cl
**Result** 16

----------
tested on: Staphylococcus aureus; assay: Antimicrobial activity against methicillin-resistant Staphylococcus aureus ATCC BAA-1556 after 16 hrs by broth microdilution method; type: functional; settings: ATCC BAA-1556, 16 h
Reported MIC is given for each of the following compounds.
Just the number in µg/mL, nothing appended.

- compound_structure_string: "CCCCCc1ccc(C(=O)Nc2ccc3c(c2)nc(N)n3CCc2ccc3ccccc3c2)cc1.Cl"
  property_name: "MIC"
  measured_result: 32
- compound_structure_string: "CCCCCc1ccc(C(=O)Nc2ccc3c(c2)nc(N)n3CCc2ccccn2)cc1.Cl"
  property_name: "MIC"
  measured_result: 32
- compound_structure_string: "CCCCCc1ccc(C(=O)Nc2ccc3c(c2)nc(N)n3C(C)C)cc1.Cl"
  property_name: "MIC"
  measured_result: 8
- compound_structure_string: "CCCCCc1ccc(C(=O)Nc2ccc3c(c2)nc(N)n3CCc2ccccc2OC)cc1.Cl"
  property_name: "MIC"
  measured_result: 16
- compound_structure_string: "CCCCCc1ccc(C(=O)Nc2ccc3c(c2)nc(N)n3CCc2ccc(OC)cc2)cc1.Cl"
  property_name: "MIC"
  measured_result: 8
- compound_structure_string: "CCCCCc1ccc(C(=O)Nc2ccc3c(c2)nc(N)n3CCc2cccc(OC)c2)cc1.Cl"
  property_name: "MIC"
  measured_result: 16

**Query** Request - read-out MIC | tested on Staphylococcus aureus | compound CCCCCc1ccc(C(=O)Nc2ccc3c(c2)nc(N)n3CCc2nc3ccccc3[nH]2)cc1.Cl
**Result** 64

**Query** What about CCCCCc1ccc(C(=O)Nc2ccc3c(c2)nc(N)n3C)cc1.Cl ?
**Result** 32

**Query** Same question, CCCCCc1ccc(C(=O)Nc2ccc3[nH]c(N)nc3c2)cc1 this time
**Result** 8

**Query** Now the compound CCCCCc1ccc(C(=O)Nc2ccc3c(c2)nc(N)n3CCCC)cc1.Cl
**Result** 8

----------
tested on: Staphylococcus aureus; assay: Toxicity in methicillin-resistant Staphylococcus aureus ATCC 43300 assessed as inhibition of planktonic cell growth at IC50 after 2 to 24 hrs by spectrophotometry; assay type: organism-based
property_name: Activity

- compound_structure_string: "CCCCCc1ccc(C(=O)Nc2ccc3c(c2)nc(N)n3CCc2ccc3ccccc3c2)cc1.Cl"
  target_entity: "Staphylococcus aureus"
  property_name: "Activity"
  measured_result: "Toxic"
- compound_structure_string: "CCCCCc1ccc(C(=O)Nc2ccc3c(c2)nc(N)n3CCc2ccccc2OC)cc1.Cl"
  target_entity: "Staphylococcus aureus"
  property_name: "Activity"
  measured_result: "Non-toxic"
- compound_structure_string: "CCCCCc1ccc(C(=O)Nc2ccc3c(c2)nc(N)n3CCc2nc3ccccc3[nH]2)cc1.Cl"
  target_entity: "Staphylococcus aureus"
  property_name: "Activity"
  measured_result: "Non-toxic"
- compound_structure_string: "CCCCCc1ccc(C(=O)Nc2ccc3[nH]c(N)nc3c2)cc1"
  target_entity: "Staphylococcus aureus"
  property_name: "Activity"
  measured_result: "Toxic"
- compound_structure_string: "CCCCCc1ccc(C(=O)Nc2ccc3c(c2)nc(N)n3CCCCc2c[nH]c3ccccc23)cc1.Cl"
  target_entity: "Staphylococcus aureus"
  property_name: "Activity"
  measured_result: "Toxic"

**Query** Sample CCCCCCn1c(N)nc2cc(NC(=O)c3ccc(CCCCC)cc3)ccc21.Cl — what was its Activity?
**Result** Non-toxic

**Query** Here is the next compound: CCCCCc1ccc(C(=O)Nc2ccc3c(c2)nc(N)n3Cc2ccccc2)cc1.Cl
**Result** Non-toxic

**Query** # repeat for CCCCCc1ccc(C(=O)Nc2ccc3c(c2)nc(N)n3CCc2ccccn2)cc1.Cl
**Result** Non-toxic

**Query** Now the same for CCCCCc1ccc(C(=O)Nc2ccc3c(c2)nc(N)n3CCc2cccc(OC)c2)cc1.Cl
**Result** Toxic

----------
tested on: Staphylococcus aureus; experiment: Toxicity in methicillin-resistant Staphylococcus aureus ATCC BAA-44 assessed as inhibition of planktonic cell growth at IC50 after 2 to 24 hrs by spectrophotometry; format: organism-based
property_name: Activity

# annotated cases, reported Activity shown
- compound_structure_string: "CCCCCCCCn1c(N)nc2cc(NC(=O)c3ccc(CCCCC)cc3)ccc21.Cl"
  Activity: "Non-toxic"
- compound_structure_string: "CCCCCc1ccc(C(=O)Nc2ccc3c(c2)nc(N)n3CCc2c[nH]c3ccccc23)cc1.Cl"
  Activity: "Toxic"
- compound_structure_string: "CCCCCc1ccc(C(=O)Nc2ccc3c(c2)nc(N)n3CCCc2ccccc2)cc1.Cl"
  Activity: "Non-toxic"
- compound_structure_string: "CCCCCc1ccc(C(=O)Nc2ccc3c(c2)nc(N)n3CCCCc2c[nH]c3ccccc23)cc1.Cl"
  Activity: "Toxic"
- compound_structure_string: "CCCCCc1ccc(C(=O)Nc2ccc3c(c2)nc(N)n3C(C)C)cc1.Cl"
  Activity: "Non-toxic"

**Query** What does the data say about its Activity? Entry: CCCCCCn1c(N)nc2cc(NC(=O)c3ccc(CCCCC)cc3)ccc21.Cl
**Result** Non-toxic

----------
tested on: Staphylococcus aureus; test: Antimicrobial activity against methicillin-susceptible Staphylococcus aureus ATCC 29213 after 16 hrs by broth microdilution method; type: functional; settings: ATCC 29213, 16 h
Listed compounds paired with reported MIC

Here is how some compounds turned out for MIC.
- compound_structure_string: "CCCCCc1ccc(C(=O)Nc2ccc3[nH]c(N)nc3c2)cc1"
  measured_result: "16 µg/mL"
- compound_structure_string: "CCCCCc1ccc(C(=O)Nc2ccc3c(c2)nc(N)n3CCCCc2ccccc2)cc1.Cl"
  measured_result: "32 µg/mL"
- compound_structure_string: "CCCCCc1ccc(C(=O)Nc2ccc3c(c2)nc(N)n3CCCc2ccccc2)cc1.Cl"
  measured_result: "16 µg/mL"

**Query** // returns reported MIC for input CCCCCc1ccc(C(=O)Nc2ccc3c(c2)nc(N)n3CCc2cccc3ccccc23)cc1.Cl
**Result** > 64 µg/mL

**Query** Also CCCCCc1ccc(C(=O)Nc2ccc3c(c2)nc(N)n3C(C)C)cc1.Cl , if possible.
**Result** 16 µg/mL

**Query** // same read-out, input: CCCCCc1ccc(C(=O)Nc2ccc3c(c2)nc(N)n3Cc2ccc(OC)cc2)cc1.Cl
**Result** > 64 µg/mL

**Query** Also, CCCCCCCCn1c(N)nc2cc(NC(=O)c3ccc(CCCCC)cc3)ccc21.Cl please.
**Result** 64 µg/mL

**Query** Request: CCCCCc1ccc(C(=O)Nc2ccc3c(c2)nc(N)n3C)cc1.Cl
**Result** 16 µg/mL
